target: Desmoglein-3 (Homo sapiens); assay: inhibitors of anti-DSG3 scFv binding to DSG3, confirmation, biochemical, cherry pick 1, bead-based, flow cytometry (AID 588466); settings: Protein G beads with DSG3, scFv-GFP binding, at 10 µM, active compounds read low;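 note: 100% = 2% DMSO vehicle and 0% = excess soluble DSG3 blocking control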
Hit rate of the full screen: of about 2,100 compounds, about 30 (1%) were called active. The list is a sample of the results.
Test readout: binding response (% of DMSO) (%)
Enter your answer as a number in %; do not include the unit.

Recorded results for 3 compounds are shown here.
{"columns": ["Compound", "binding response (% of DMSO) [%]"],
 "data": [
  ["Cc1cc2oc(=O)cc(-c3ccccc3)c2c(C)c1-c1ccc(F)c(Cl)c1", 105],
  ["CC1=CCC2C(=O)N(c3ccc(C)c(Br)c3)C(=O)C2C1 (stereo unspecified)", 109],
  ["Cc1ccc(S(=O)(=O)N2CCCCC2)cc1NC(=O)CCNC(=O)c1ccccc1Cl", 98.5]
]}

Request: # get_value(readout='binding response (% of DMSO)', item= O=C(CNC(=O)c1ccc(Br)cc1)N=Nc1c(O)[nH]c2ccc([N+](=O)[O-])cc12 )
Result: 100

Request: # get_value(readout='binding response (% of DMSO)', item= Cc1cc2ccccc2n1CCNC(=O)c1ccc(S(=O)(=O)N2CCCCC2)cc1 )
Result: 94.7

Request: # get_value(readout='binding response (% of DMSO)', item= CC(=O)c1ccc(OCC(O)CN2CC(C)OC(C)C2)cc1 (stereo unspecified) )
Result: 104

Request: # get_value(readout='binding response (% of DMSO)', item= Cc1cnc(C(=O)N2CCN(S(=O)(=O)c3cc(C(F)(F)F)cc(C(F)(F)F)c3)CC2)cn1 )
Result: 110

Request: # get_value(readout='binding response (% of DMSO)', item= Cc1ccc(NC(=O)Nc2ccc3c(c2)OCO3)nc1 )
Result: 101

Request: # get_value(readout='binding response (% of DMSO)', item= C=CCn1c(O)c(C2=c3ccccc3=NC2=O)s/c1=N/c1nccs1 )
Result: 71.7

Request: # get_value(readout='binding response (% of DMSO)', item= COc1ccc(NC(=O)Cn2nnc(C(=O)NCc3ccccc3)c2N)cc1Cl )
Result: 76.4

Request: # get_value(readout='binding response (% of DMSO)', item= Cc1nc(SCc2nc3c([N+](=O)[O-])cccc3[nH]2)c2oc3ccccc3c2n1 )
Result: 108

Request: # get_value(readout='binding response (% of DMSO)', item= COc1ccc(CCN2CC(C(=O)OCC(=O)NC(Cc3ccccc3)C(C)=O)CC2=O)cc1OC (stereo unspecified) )
Result: 102

Request: # get_value(readout='binding response (% of DMSO)', item= COc1ccc(S(=O)(=O)N2CCCCCC2)cc1N )
Result: 100

Request: # get_value(readout='binding response (% of DMSO)', item= Cc1c(C(=O)N2CCN(c3ccc(F)cc3)CC2)sc2nc(-c3ccccc3)cn12 )
Result: 101

Request: # get_value(readout='binding response (% of DMSO)', item= CC(=O)C1=C(O)CC(c2ccccc2)CC1=NCCc1c(C)[nH]c2ccc(C)cc12 (stereo unspecified) )
Result: 96.5

Request: # get_value(readout='binding response (% of DMSO)', item= CCOc1ccc(-n2nc3ccc(NC(=O)c4ccc5c(c4)OCCO5)cc3n2)cc1 )
Result: 85.4
